target: isolated recombinant JAK2 kinase domain (Homo sapiens, UniProt O60674); construct: isolated recombinant JAK1 and JAK2 kinase domain; test: JAK enzyme assay, JAK2 kinase domain (Caliper LabChip); settings: 0.2 nM JAK2, ATP 25 μM, Morrison tight binding model
Sequence (O60674 849-1124 limits assumed): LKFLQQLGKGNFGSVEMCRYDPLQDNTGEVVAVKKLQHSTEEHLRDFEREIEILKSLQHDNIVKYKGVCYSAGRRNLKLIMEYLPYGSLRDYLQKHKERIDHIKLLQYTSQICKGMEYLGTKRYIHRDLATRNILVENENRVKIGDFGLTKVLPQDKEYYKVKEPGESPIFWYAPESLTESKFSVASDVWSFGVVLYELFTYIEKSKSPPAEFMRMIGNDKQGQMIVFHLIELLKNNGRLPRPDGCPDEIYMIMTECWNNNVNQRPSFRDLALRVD
readout-label: log10 Ki (log10 of the value in nM)
Scale: decimal log of Ki, Ki in nM.

If you can, please state the reported log10 Ki value of O=C(Nc1cn(C2CCOC2=O)nc1-c1cc(OC(F)F)ccc1OC(F)F)c1cnn2cccnc12 (single isomer, unassigned) [Example 36] . -0.40

Name the reported log10 Ki value associated with the compound O=C(Nc1cn(C2CCOC2=O)nc1-c1cc2c(cc1OC(F)F)NCCS2)c1cnn2cccnc12 (single isomer, unassigned) [Example 33] -1.02

Consider the compound O=C(Nc1cn(C2CCN(CCN3CCOCC3)C2=O)nc1-c1cc(Cl)ccc1OC(F)F)c1cnn2cccnc12 (single isomer, unassigned) [Example 15] and give its measured log10 Ki. 0.00

Using the record for O=C(Nc1cn(C2CCOC2=O)nc1-c1cc(SC(F)F)ccc1OC(F)F)c1cnn2cccnc12 (single isomer, unassigned) [Example 32] , report its log10 Ki. -0.96

If you can, please state the reported log10 Ki value of O=C(Nc1cn(C2CCOC2=O)nc1-c1cc(SC(F)F)ccc1OC(F)F)c1cnn2cccnc12 (single isomer, unassigned) [Example 31] . -0.40

Recorded log10 Ki for O=C(Nc1cn(C2CCCCC2=O)nc1-c1cc(Cl)ccc1OC(F)F)c1cnn2cccnc12 (racemic) , please? 0.15

log10 Ki lookup needed for CSc1ccc(OC(F)F)c(-c2nn(C3CCOC3=O)cc2NC(=O)c2cnn3cccnc23)c1 (single isomer, unassigned) [Example 29] , thanks. -0.82

Need log10 Ki, item CS(=O)(=O)c1ccc(OC(F)F)c(-c2nn(C3CCOC3=O)cc2NC(=O)c2cnn3cccnc23)c1 (single isomer, unassigned) [Example 40] -0.21

Look up log10 Ki for this compound: O=C(Nc1cn([C@H]2CCNC2=O)nc1-c1cc(Cl)ccc1OC(F)F)c1cnn2cccnc12 (single isomer, unassigned) -0.40

// returns reported log10 Ki for input CN1CCN(C(=O)CN2CCC(n3cc(NC(=O)c4cnn5cccnc45)c(-c4cc(Cl)ccc4OC(F)F)n3)C2=O)CC1 (single isomer, unassigned) [Example 17] 0.18

What value of measured log10 Ki is listed for O=C(Nc1cn(C2CCCC2=O)nc1-c1cc(Cl)ccc1OC(F)F)c1cnn2cccnc12 (racemic) ? -0.35

Requested field: log10 Ki. Item: CN1CCCC(n2cc(NC(=O)c3cnn4cccnc34)c(-c3cc(Cl)ccc3OC(F)F)n2)C1=O (single isomer, unassigned) [Example 21] 0.32

Can you share its log10 Ki? I mean this compound: O=C(Nc1cn(C2CCN(CCN3CCOCC3)C2=O)nc1-c1cc(Cl)ccc1OC(F)F)c1cnn2cccnc12 (single isomer, unassigned) [Example 14] 0.15

What log10 Ki value was documented for this compound, CN1CCC(n2cc(NC(=O)c3cnn4cccnc34)c(-c3cc4c(cc3OC(F)F)NCCS4)n2)C1=O (single isomer, unassigned) [Example 12] ? -0.96

What value of log10 Ki has been reported for the following compound? O=C(Nc1cn(C2CCOC2=O)nc1-c1cc2c(cc1OC(F)F)NCCO2)c1cnn2cccnc12 (single isomer, unassigned) [Example 39, formic acid] -0.54

// query log10 Ki value for entry CN1CCC(n2cc(NC(=O)c3cnn4cccnc34)c(-c3cc4c(cc3OC(F)F)NCCS4)n2)C1=O (single isomer, unassigned) [Example 13] -0.37

# input compound: O=C(Nc1cn(C2CCOC2=O)nc1-c1cc2c(cc1OC(F)F)NCCS2)c1cnn2cccnc12 (single isomer, unassigned) [Example 34] ; wanted: its log10 Ki -1.25

Name the reported log10 Ki value associated with the compound CSc1ccc(OC(F)F)c(-c2nn(C3CCOC3=O)cc2NC(=O)c2cnn3cccnc23)c1 (single isomer, unassigned) [Example 30] -1.02

Tell me the measured log10 Ki of CSc1ccc(OC(F)F)c(-c2nn(C3CCN(C)C3=O)cc2NC(=O)c2cnn3cccnc23)c1 (single isomer, unassigned) [Example 7] , please. -0.51

I have this compound here, O=C(Nc1cn(C2CCN(C3COC3)C2=O)nc1-c1cc(Cl)ccc1OC(F)F)c1cnn2cccnc12 (single isomer, unassigned) [Example 23] , and I need its recorded log10 Ki. -0.27

I'd like to know its log10 Ki. The compound in question is CN1CCC(n2cc(NC(=O)c3cnn4cccnc34)c(-c3cc(OC(F)F)ccc3OC(F)F)n2)C1=O (single isomer, unassigned) [Example 8] -0.08

Return reported log10 Ki; argument: CSc1ccc(OC(F)F)c(-c2nn(C3CCN(C)C3=O)cc2NC(=O)c2cnn3cccnc23)c1 (single isomer, unassigned) [Example 6] -0.62

Which log10 Ki is listed for CN1CCC(n2cc(NC(=O)c3cnn4cccnc34)c(-c3cc(OC(F)F)ccc3OC(F)F)n2)C1=O (single isomer, unassigned) [Example 9] ? 0.04

So what's the measured log10 Ki for this one? O=C(Nc1cn(C2CCOC2=O)nc1-c1cc2c(cc1OC(F)F)NCCO2)c1cnn2cccnc12 (single isomer, unassigned) [Example 38] -0.38
